assay_info: Bioavailability in mouse at 1 mg/kg, iv by LC-MS/MS analysis
Type: ADME, organism-based
cond: in vivo

test_smiles: Cc1ccc(Oc2ccc3nc(COc4cccc(C(=O)O)c4)n(C)c3c2F)c(C)n1
bioavailability [%]: 21

====

assay_info: Half life in mouse at 3 mg/kg, po by LC-MS/MS analysis
Type: ADME, organism-based
cond: in vivo

test_smiles: Cc1ccc(Oc2ccc3nc(COc4cccc(C(=O)O)c4)n(C)c3c2F)c(C)n1
uom: h
half-life: 4.35

====

assay_info: 1-octanol/phosphate buffer distribution coefficient, log D of the compound at pH 7.4 measured after 30 mins by HPLC-LC/MS based shake flask method
Format: physicochemical
Rule for this label: True means logD at 0.5 h is less than 1; False means logD at 0.5 h is at least 1.

test_smiles: CCOc1cc(Oc2ccc(C)nc2C)cc2c1nc(COc1cccc(C(=O)O)c1)n2C
class: False

test_smiles: COc1cc(Oc2ccc3nc(COc4cccc(C(=O)O)c4)n(C)c3c2)cc(C)n1
class: False

test_smiles: Cc1cnc(Oc2cc(OC(C)C)c3nc(COc4cccc(C(=O)O)c4)n(C)c3c2)c(C)c1
class: False

test_smiles: COc1cc(Oc2ccc3nc(COc4cccc(C(=O)O)c4)n(C)c3c2)ccn1
class: False

test_smiles: Cc1ccc(Oc2ccc3nc(COc4cccc(C(=O)O)c4)n(C)c3c2F)c(C)n1
class: False

test_smiles: COc1ncc(Oc2ccc3nc(COc4cccc(C(=O)O)c4)n(C)c3c2)cc1C
class: False

test_smiles: COc1nc(C)ccc1Oc1ccc2nc(COc3cccc(C(=O)O)c3)n(C)c2c1
class: False

test_smiles: Cn1c(COc2cccc(C(=O)O)c2)nc2ccc(Oc3ccnc(Cl)c3)cc21
class: False

test_smiles: Cc1cc(Oc2ccc3nc(COc4cccc(C(=O)O)c4)n(C)c3c2)ccn1
class: True

test_smiles: Cc1ccc(Oc2cc(C)c3nc(COc4cccc(C(=O)O)c4)n(C)c3c2)c(C)n1
class: False

test_smiles: COc1cc(Oc2ccc3nc(COc4cccc(C(=O)O)c4)n(C)c3c2F)ccn1
class: False

test_smiles: CCCOc1cc(Oc2ccc(C)nc2C)cc2c1nc(COc1cccc(C(=O)O)c1)n2C
class: False

test_smiles: CCc1cc(Oc2ccc3nc(COc4cccc(C(=O)O)c4)n(C)c3c2)ccn1
class: False

test_smiles: COc1cc(Oc2cc(OC(C)C)c3nc(COc4cccc(C(=O)O)c4)n(C)c3c2)ccn1
class: False

test_smiles: COc1ccc(Oc2ccc3nc(COc4cccc(C(=O)O)c4)n(C)c3c2)cn1
class: False

test_smiles: COc1cncc(Oc2ccc3nc(COc4cccc(C(=O)O)c4)n(C)c3c2)c1
class: True

test_smiles: Cc1ccncc1Oc1ccc2nc(COc3cccc(C(=O)O)c3)n(C)c2c1
class: True

test_smiles: CCOc1cc(Oc2ccnc(OC)c2)cc2c1nc(COc1cccc(C(=O)O)c1)n2C
class: False

test_smiles: COc1cc(Oc2ccc3nc(COc4cccc(C(=O)O)c4)n(C)c3n2)cc(C)n1
class: False
